System: cyclic AMP-dependent protein kinase
Experiment: Activation of bovine brain cyclic AMP-dependent protein kinase
Assay type: biochemical
Conditions: pH 6, relative to cyclic AMP
property label: Ka' (= Ka, cyclic AMP/Ka analog)

compound: O=P1(O)OC[C@H]2O[C@@H](n3cnc4c(=S)[nH]cnc43)[C@H](O)[C@@H]2O1 [Compound 6, reference compound]
data value: 0.56
//
compound: O=P1(O)OC[C@H]2O[C@@H](n3cnc4c(SCc5ccccc5)ncnc43)[C@H](O)[C@@H]2O1 [Compound 7c]
data value: 1.25
//
compound: CCSc1ncnc2c1ncn2[C@@H]1O[C@@H]2COP(=O)(O)O[C@H]2[C@H]1O [Compound 7b]
data value: 2.0

Could you now look at the following compound, please?
Ask | Reported Ka' (= Ka, cyclic AMP/Ka analog), compound CSc1ncnc2c1ncn2[C@@H]1O[C@@H]2COP(=O)(O)O[C@H]2[C@H]1O [Compound 7a] : ____
Reply | 1.45
